- Target System: Estrogen receptor (Homo sapiens, UniProt P03372)
- Sequence (P03372 whole entry): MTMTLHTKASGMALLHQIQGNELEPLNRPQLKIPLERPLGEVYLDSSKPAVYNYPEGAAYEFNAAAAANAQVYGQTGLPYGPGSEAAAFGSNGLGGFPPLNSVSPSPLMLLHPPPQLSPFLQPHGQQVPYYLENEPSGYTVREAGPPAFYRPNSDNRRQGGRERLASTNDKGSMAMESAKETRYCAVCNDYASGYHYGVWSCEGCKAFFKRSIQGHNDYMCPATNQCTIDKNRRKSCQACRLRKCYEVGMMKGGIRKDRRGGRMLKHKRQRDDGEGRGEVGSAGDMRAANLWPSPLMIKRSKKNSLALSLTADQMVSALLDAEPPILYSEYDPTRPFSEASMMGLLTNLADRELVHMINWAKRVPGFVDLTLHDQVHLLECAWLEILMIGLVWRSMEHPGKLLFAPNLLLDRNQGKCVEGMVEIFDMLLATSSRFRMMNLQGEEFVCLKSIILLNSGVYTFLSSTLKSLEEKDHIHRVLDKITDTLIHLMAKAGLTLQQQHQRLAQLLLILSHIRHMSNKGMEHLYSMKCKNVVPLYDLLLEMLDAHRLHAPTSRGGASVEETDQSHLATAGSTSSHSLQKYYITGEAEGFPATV
- Assay Notes: Estrogen Receptor Binding Assay.
- Recorded Conditions: pH 7.5; 22 °C
Friendly reminder: Ki below 0.006 µM is condition met, at or above is condition not met.

Please review the following examples before continuing.
>>> label("Oc1ccc([C@@H]2Oc3cc(O)ccc3[C@@H]3CCC[C@@H]32)cc1 [racemic mixture]")
"condition not met"
>>> label("Oc1ccc([C@@H]2CCc3cc(O)ccc3O2)cc1 [racemic mixture]")
"condition not met"
>>> label("Oc1ccc([C@@H]2Oc3cccc(O)c3[C@@H]3CCC[C@@H]32)cc1 [racemic mixture]")
"condition met"
>>> label("Oc1ccc2c(c1)[C@@H]1CCC[C@@H]1[C@H](c1ccccc1)O2 [racemic mixture]")
"condition not met"
>>> label("Oc1ccc([C@@H]2Oc3ccc(O)cc3[C@@H]3CCCC[C@@H]32)cc1 [racemic mixture]")
"condition met"

Ki strictly < 0.006 µM for this molecule? Oc1cccc([C@@H]2Oc3ccc(O)cc3[C@@H]3CCC[C@@H]32)c1 (racemic)
condition not met
